Parameter protein stability index: see the listing below.
B1: ZNF193 (parent)
chain: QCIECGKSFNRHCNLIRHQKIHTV

variants of: B1; assay: protein stability index of a GFP-peptide fusion (GPS, HEK-293T) (PSI 1-6); higher = more stable; conditions: c terminus: a fixed tail appended;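 note: lentivirally expressed fusions sorted by FACS into six bins by GFP to DsRed ratio, PSI derived from sequencing read proportions per bin multiplied by bin number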

# annotated cases, reported protein stability index shown
ordered-residues	test-result
QCIECGKSNNRHCNLIRHQKIHTV	2.56
QDIECGKSFNRHCNLIRHQKIHTV	2.41
QCIECGKSFSRHCNLIRHQKIHTV	3.48
QCIECGKSFNRHCNLIMHQKIHTV	2.95

Short answer for HCIECGKSFNRHCNLIRHQKIHTV : protein stability index was 3.36

Memo: QCIECGKSYNRHCNLIRHQKIHTV , reported protein stability index: 3.01

Briefly, protein stability index measured for QCIECGKKFNRHCNLIRHQKIHTV : 3.64
